Kindly state phosphorylation enrichment for each of the entries shown.
experimental-target: Jak2 (UniProt O60674)
Sequence (O60674 whole entry, looked up): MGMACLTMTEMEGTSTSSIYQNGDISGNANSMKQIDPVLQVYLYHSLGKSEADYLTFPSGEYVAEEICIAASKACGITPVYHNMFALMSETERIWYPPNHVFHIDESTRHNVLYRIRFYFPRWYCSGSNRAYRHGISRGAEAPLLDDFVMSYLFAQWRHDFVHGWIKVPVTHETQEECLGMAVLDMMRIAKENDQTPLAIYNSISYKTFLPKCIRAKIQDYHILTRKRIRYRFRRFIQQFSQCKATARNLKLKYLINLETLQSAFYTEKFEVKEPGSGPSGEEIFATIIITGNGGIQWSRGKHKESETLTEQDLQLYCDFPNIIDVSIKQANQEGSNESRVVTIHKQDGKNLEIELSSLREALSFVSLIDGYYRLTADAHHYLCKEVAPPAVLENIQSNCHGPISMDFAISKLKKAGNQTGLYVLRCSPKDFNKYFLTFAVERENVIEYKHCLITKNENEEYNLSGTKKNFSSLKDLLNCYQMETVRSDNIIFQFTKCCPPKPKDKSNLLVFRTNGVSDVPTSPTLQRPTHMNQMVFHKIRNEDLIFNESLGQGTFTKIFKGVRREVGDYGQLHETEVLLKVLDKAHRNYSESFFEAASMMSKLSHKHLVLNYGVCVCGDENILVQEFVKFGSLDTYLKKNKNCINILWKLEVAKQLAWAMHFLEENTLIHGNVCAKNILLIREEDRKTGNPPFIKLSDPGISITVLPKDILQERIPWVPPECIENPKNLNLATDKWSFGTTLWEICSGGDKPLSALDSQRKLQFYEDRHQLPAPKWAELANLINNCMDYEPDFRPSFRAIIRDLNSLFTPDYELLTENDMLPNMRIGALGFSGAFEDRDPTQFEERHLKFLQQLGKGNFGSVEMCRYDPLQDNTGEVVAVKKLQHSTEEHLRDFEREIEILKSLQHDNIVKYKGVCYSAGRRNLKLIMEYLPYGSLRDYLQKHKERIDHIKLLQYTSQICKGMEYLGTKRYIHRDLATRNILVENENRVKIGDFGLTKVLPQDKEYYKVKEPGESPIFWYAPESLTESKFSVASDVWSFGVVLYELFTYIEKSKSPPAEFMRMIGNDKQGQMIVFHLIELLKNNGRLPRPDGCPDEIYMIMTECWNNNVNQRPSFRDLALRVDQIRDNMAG
protocol-summary: phosphorylation enrichment, bacterial display (enrichment ratio); higher = better substrate or ligand; peptides without Tyr show the background;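 note: 11-residue human phosphosite peptides and single-mutation variants displayed on the E. coli surface, counted by deep sequencing, each peptide's frequency after selection divided by its frequency in the unselected input library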;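 note: frequency after pTyr selection over input frequency; kinase dosed for 20-30% of maximal phosphorylation in three min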
Reply with the value as a number alone.

Input HEHKGYNANFC [TGFB2_Y341_P338H] . Output phosphorylation enrichment: 0.642

Input CGTPDYIDPEI [PRKCG_Y521_A523D] . Output phosphorylation enrichment: 1.31

Input SCTFTCLLGDR [ETHE1_Y38_Y38C] . Output phosphorylation enrichment: 0.84

Input TRTDAYAVSSF . Output phosphorylation enrichment: 1.08

Input HIKHNYECLVF [XRCC5_Y416_YF] . Output phosphorylation enrichment: 0.547

Input WFKKFYDANFD [MAPRE2_Y158_YF] . Output phosphorylation enrichment: 0.85

Input FSAPNCCYRCG [PPP2CA_Y265_Y265C] . Output phosphorylation enrichment: 1.02
